Would you kindly list combination Emax for each of these molecules?
Tested on: MOLP-8 (Plasma Cell Myeloma)
Assay: combination Emax (second highest fraction inhibited in the dose matrix, 72 h); higher = more inhibition; extreme values may be limits of the assay
Form: value (number only, do not type unit).

combination Emax of COc1cccc(OCCCN)c1-c1cc(Nc2cnc(C#N)cn2)n[nH]1 [Prexasertib] + Cc1cc2ncnn2cc1Nc1ncc2c(n1)n(C1CCOCC1)c(=O)n2C [AZD7648] (first compound max 1 µM, 7x7, partner max 10 µM) , assay on MOLP-8 (Plasma Cell Myeloma), is 0.897

combination Emax of CC1(C)CCC(CN2CCN(c3ccc(C(=O)NS(=O)(=O)c4ccc(NCC5CCOCC5)c([N+](=O)[O-])c4)c(Oc4cnc5[nH]ccc5c4)c3)CC2)=C(c2ccc(Cl)cc2)C1 [Venetoclax] + C1CN(CCC1(C(=O)N[C@@H](CCO)C2=CC=C(C=C2)Cl)N)C3=NC=NC4=C3C=CN4 [Capivasertib] (first compound max 1 µM, 7x7, partner max 3 µM) , assay on MOLP-8 (Plasma Cell Myeloma), is 0.385

combination Emax of Cn1cnc2c(F)c(Nc3ccc(Br)cc3Cl)c(C(=O)NOCCO)cc21 [Selumetinib] + CCN(CCO)CCCOc1ccc2c(Nc3cc(CC(=O)Nc4cccc(F)c4)[nH]n3)ncnc2c1 [AZD2811] (first compound max 10 µM, 7x7, partner max 1 µM) , assay on MOLP-8 (Plasma Cell Myeloma), is 0.417

combination Emax of CC(=O)c1c(C)c2cnc(Nc3ccc(N4CCNCC4)cn3)nc2n(C2CCCC2)c1=O [Palbociclib] + CC1(C)CCC(CN2CCN(c3ccc(C(=O)NS(=O)(=O)c4ccc(NCC5CCOCC5)c([N+](=O)[O-])c4)c(Oc4cnc5[nH]ccc5c4)c3)CC2)=C(c2ccc(Cl)cc2)C1 [Venetoclax] (first compound max 10 µM, 7x7, partner max 1 µM) , assay on MOLP-8 (Plasma Cell Myeloma), is 0.538

combination Emax of Cc1c2c(nn1C)CSCc1cc(n(C)n1)CSc1cc(c3ccccc3c1)OCCCc1c(C(=O)O)n(C)c3c-2c(Cl)ccc13 [AZD5991] + Cn1cnc2c(F)c(Nc3ccc(Br)cc3Cl)c(C(=O)NOCCO)cc21 [Selumetinib] (first compound max 1 µM, 7x7, partner max 3 µM) , assay on MOLP-8 (Plasma Cell Myeloma), is 1

combination Emax of CN(CCO)CC[C@H](CSc1ccccc1)Nc1ccc(S(=O)(=O)NC(=O)c2ccc(N3CCC([C@@H](O)c4ccccc4-c4ccc(Cl)cc4)CC3)cc2)cc1S(=O)(=O)C(F)(F)F [AZD4320] + C1CN(CCC1(C(=O)N[C@@H](CCO)C2=CC=C(C=C2)Cl)N)C3=NC=NC4=C3C=CN4 [Capivasertib] (first compound max 1 µM, 7x7, partner max 3 µM) , assay on MOLP-8 (Plasma Cell Myeloma), is 0.254

combination Emax of COc1cc2ncnc(Nc3ccc(F)c(Cl)c3)c2cc1OCCCN1CCOCC1 [Gefitinib] + CC(C)n1c(=O)n(C)c2cnc3cc(F)c(-c4ccc(OCCCN5CCCCC5)nc4)cc3c21 [AZD1390] (first compound max 10 µM, 7x7, partner max 0.3 µM) , assay on MOLP-8 (Plasma Cell Myeloma), is 0.413

combination Emax of CCN(CCO)CCCOc1ccc2c(Nc3cc(CC(=O)Nc4cccc(F)c4)[nH]n3)ncnc2c1 [AZD2811] + C=CCn1c(=O)c2cnc(Nc3ccc(N4CCN(C)CC4)cc3)nc2n1-c1cccc(C(C)(C)O)n1 [AZD1775] (first compound max 1 µM, partner max 1 µM) , assay on MOLP-8 (Plasma Cell Myeloma), is 0.76
